Source of measurements: paper PMC2824011

- Assay System: Golgi α-mannosidase II (dGMII) (Drosophila melanogaster, UniProt Q24451)
- Sequence (Q24451 76-1108): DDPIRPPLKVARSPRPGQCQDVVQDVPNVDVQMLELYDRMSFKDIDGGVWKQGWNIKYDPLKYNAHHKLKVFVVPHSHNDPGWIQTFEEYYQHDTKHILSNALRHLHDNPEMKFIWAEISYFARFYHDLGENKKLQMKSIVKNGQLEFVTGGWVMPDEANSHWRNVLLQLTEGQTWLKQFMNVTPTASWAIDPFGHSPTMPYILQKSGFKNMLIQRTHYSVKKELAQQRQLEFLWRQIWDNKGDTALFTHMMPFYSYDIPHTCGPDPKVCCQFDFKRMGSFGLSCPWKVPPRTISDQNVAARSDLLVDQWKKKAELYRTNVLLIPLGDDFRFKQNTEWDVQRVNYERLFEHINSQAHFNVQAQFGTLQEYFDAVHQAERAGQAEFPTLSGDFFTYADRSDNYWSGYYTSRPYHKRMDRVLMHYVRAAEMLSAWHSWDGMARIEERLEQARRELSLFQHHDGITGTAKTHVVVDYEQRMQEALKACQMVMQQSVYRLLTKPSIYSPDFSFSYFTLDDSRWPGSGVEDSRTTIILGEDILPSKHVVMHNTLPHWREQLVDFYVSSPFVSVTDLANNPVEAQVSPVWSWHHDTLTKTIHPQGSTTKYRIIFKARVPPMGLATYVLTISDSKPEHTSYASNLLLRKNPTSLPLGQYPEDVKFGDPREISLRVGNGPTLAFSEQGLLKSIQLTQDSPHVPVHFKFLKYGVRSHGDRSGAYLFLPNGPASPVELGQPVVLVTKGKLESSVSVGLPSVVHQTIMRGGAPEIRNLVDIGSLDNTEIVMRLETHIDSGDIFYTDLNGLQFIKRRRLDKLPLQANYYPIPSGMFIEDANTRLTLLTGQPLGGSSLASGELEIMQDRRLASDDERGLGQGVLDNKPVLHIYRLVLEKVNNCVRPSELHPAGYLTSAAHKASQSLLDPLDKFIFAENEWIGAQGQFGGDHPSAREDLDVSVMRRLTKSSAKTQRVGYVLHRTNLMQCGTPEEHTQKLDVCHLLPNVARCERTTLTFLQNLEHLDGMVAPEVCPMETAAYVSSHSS
Measure Name: pKi
On this scale, pKi is minus log10 of a concentration expressed in M (mol/L).

Consider the compound "O[C@H]1[C@H]2[C@H](O)CCCN2C[C@H]1O" and give its measured pKi.
7.35
